test system: 786-0; assay: NCI tumour cell line growth inhibition, 48 h
Activity calls are given as the source filed them. Rule as the data show it: active = GI50 up to about 1.1 µM and inactive = higher.
measurement_name: GI50

Example results:
C=CCCCCC1CCC2CCC(CCCCC=C)N12 (configuration not stated)	13.7 µM (inactive)
COC(=O)C1OC2(CCCC3CC32)O[C@H]1C(=O)OC (some centres not stated)	> 100 µM (inactive)
C/C(=C\Cc1ccc(F)cc1)CCCCCC/C(C)=C/Cc1ccc(F)cc1	7.13 µM (inactive)

Input: State its GI50 for this molecule: "N/C(=N\c1c([N+](=O)[O-])cnc2ccccc12)N1CCOCC1"
Output: > 100 µM (inactive)

Input: Provide GI50 value for the following molecule: "Cc1ccc(/C=C2\CCCC\C2=N\O)cc1"
Output: 48.5 µM (inactive)

Input: Fill in GI50 for record O=C1c2cc(Cl)ccc2-n2c(noc2=O)C2CSCN12 (configuration not stated)
Output: > 100 µM (inactive)

Input: Name the recorded GI50 of the item "C/C(=N\NC(=O)N/N=C(\C)c1ccccn1)c1ccccn1" in your answer.
Output: 2.66 µM (inactive)

Input: Please supply the value of reported GI50 for the item O=c1s[s+]([O-])c2ccccc12 (configuration not stated)
Output: > 100 µM (inactive)

Input: Respond only with GI50 recorded for COc1cc(/C=C/C(=O)CC(=O)/C=C/c2ccc(O)c(OC)c2)ccc1O [CURCUMIN]
Output: 3.33 µM (inactive)

Input: # return recorded GI50 for entry "COc1ccc2c(c1)[n+]([O-])c(-c1cccc(Cl)c1)c(N)[n+]2[O-]"
Output: 95.1 µM (inactive)

Input: Supply GI50 value. Item: "CNC(=O)OCc1nc(SC(C)C)n(C)c1COC(=O)NC"
Output: > 100 µM (inactive)

Input: Could you please provide reported GI50 for "S=C(N/N=C/c1ccccn1)N1CCCCCC1" ? Thanks!
Output: < 0.01 µM (active)

Input: Supply reported GI50 belonging to this molecule: O=C1CCC2(c3ccc(Cl)cc3)Nc3ncncc3N12 (configuration not stated)
Output: > 10 µM (inactive)

Input: Provide GI50 value for the following molecule: "COc1ccc2c(c1)C(N)=C(c1ccccc1OC)C2=O"
Output: > 100 µM (inactive)

Input: Give the value of GI50 reported for the following: Nc1nc(Cl)cc(NCC2(CO)CC(c3ccccc3)C2)n1 (configuration not stated)
Output: > 100 µM (inactive)

Input: Note down GI50 recorded for CC(C)OP(=O)(c1ccccc1)c1ccc2c(c1)OCCOCCOCCOCCO2 (configuration not stated)
Output: > 100 µM (inactive)

Input: Tell us which GI50 value is on record for N#CC1C(=O)NC2=C(CCOc3c2ccc2ccccc32)C1c1ccc(F)cc1 (configuration not stated)
Output: 17.7 µM (inactive)

Input: Quick one: give measured GI50 for COc1ccc2c(c1)CCC(CN1CCN(CCOC(c3ccc(F)cc3)c3ccc(F)cc3)CC1)C2O (configuration not stated)
Output: 11.7 µM (inactive)

Input: Provide one value: measured GI50 of "CC1(O)C=CC(=O)C=C1"
Output: 20.7 µM (inactive)

Input: // fetch GI50 given entry "Cc1c(C(=O)/C=C/c2ccccc2Cl)[n+]([O-])c2ccccc2[n+]1[O-]"
Output: 12.6 µM (inactive)

Input: Answer with reported GI50 of "COC(=O)CCc1cccnc1/C=N/O"
Output: > 100 µM (inactive)

Input: Give the measured GI50 for CCC1OC(=O)CC(O)C(C)C(OC2OC(C)C(O)C(N(C)C)C2O)C(CC=O)CC(C)C(=O)/C=C/C2(C)OC2C1C (configuration not stated)
Output: 24.1 µM (inactive)

---

system: MDA-MB-231; assay: NCI tumour cell line growth inhibition, 48 h
The source made the active and inactive calls. Cut-off read from the data, not from the text of the source: active = GI50 up to about 1.1 µM and inactive = higher.
measurement_name: GI50

Please review the following examples before continuing.
COc1cc(/C=C\C(=O)O)ccc1OCc1ccccc1	> 100 µM (inactive)
CN(C)CN1C(=O)/C(=N\n2c(S)nnc2-c2ccncc2)c2ccccc21	> 100 µM (inactive)
O=C1NC2(CN3CCC2CC3)C(=O)N1CN(Cc1ccccc1)c1ccccc1 (stereo not given)	> 100 µM (inactive)
CCCCCCCCCCCCN1[C@H]2CCC[C@H]2C(O)[C@@H]2CCC[C@@H]21 (stereo not given in full)	> 100 µM (inactive)

Now let's try a different one.
Input: Look up and report GI50, with MDA-MB-231 as system, for "C[C@@H]1CC(=O)C[C@@H]2CC[C@H]3[C@@H]4CC[C@H](OC(=O)c5cccc6cc7ccccc7nc56)[C@H]4CC[C@@H]3[C@H]21"
Output: 15.9 µM (inactive)

---

Some molecules, each annotated with its measured GI50.
test system: NCI-H460; assay: NCI tumour cell line growth inhibition, 48 h
Calls of active or inactive are those of the source. Rule as the data show it: active = GI50 up to about 1.1 µM and inactive = higher.

Look over these answered cases.
CC(=O)c1c2c(cc3c1CC1(Cc4cc5c(cc4C1=O)CCC5)C3)CCC2 (centres undefined)	42.6 µM (inactive)
N#C/C(=C/c1ccco1)C(=O)c1ccccc1	> 100 µM (inactive)
O=C1CCCCC/C=C2/CC[C@H](Sc3ccccc3)[C@@H]12	94.4 µM (inactive)

From here, focus on the item given below.
Input: Report GI50 for Cc1ccc(C)n1-c1ccccc1C1C=Cn2c3c1c(=O)c(OC(C)C)c(OC(C)C)c-3n[nH]c2=O (centres undefined)
Output: 37.6 µM (inactive)

---

Examples of compounds with documented GI50 follow.
system: UACC-62; assay: NCI tumour cell line growth inhibition, 48 h
Activity calls are given as the source filed them. Cut-off read from the data, not from the text of the source: active = GI50 up to about 1.1 µM and inactive = higher.

Worked cases, GI50 given:
OC(C/C=N/N=C/CC(O)(C(F)(F)Cl)C(F)(F)Cl)(C(F)(F)Cl)C(F)(F)Cl	> 10 µM (inactive)
O=C(Nc1ccccc1)O/N=C1/CCCC/C1=C\c1ccccc1	15.7 µM (inactive)
CCOC(=O)C1CCn2c(nc3c(=O)n(C)c(=O)n(C)c32)S1 (centres undefined)	> 100 µM (inactive)

Input: Tell me GI50 reported for "COC(=O)[C@]1(C)CCCn2c(=O)n(-c3ccccc3)c(=O)n21"
Output: > 100 µM (inactive)

Input: Indicate the recorded GI50 value for this compound: "O=C1c2ccccc2C(=O)c2c1sc1nc3ccccc3n21"
Output: 1.87 µM (inactive)

Input: Supply measured GI50 of COc1ccc2c(c1)CCC(CN1CCN(CCOC(c3ccc(F)cc3)c3ccc(F)cc3)CC1)C2O (centres undefined) in your reply.
Output: 11.5 µM (inactive)

Input: Please supply the value of reported GI50 for the item "C[C@@H]1CC(=O)C[C@@H]2CC[C@H]3[C@@H]4CC[C@H](OC(=O)c5cccc6cc7ccccc7nc56)[C@H]4CC[C@@H]3[C@H]21"
Output: 13.3 µM (inactive)

Input: Give the value of GI50 reported for the following: "O=c1c2ccccc2nc(Cc2nc(-c3ccc(Cl)cc3)cs2)n1-c1ccc(Cl)cc1"
Output: 5.78 µM (inactive)

Input: Please look at this compound and report its GI50: CC(C)OP(=O)(c1ccccc1)c1ccc2c(c1)OCCOCCOCCOCCO2 (centres undefined)
Output: > 100 µM (inactive)

---

test system: MOLT-4; assay: NCI tumour cell line growth inhibition, 48 h
Calls of active or inactive are those of the source. Cut-off read from the data, not from the text of the source: active = GI50 up to about 1.1 µM and inactive = higher.
measurement_name: GI50

O=C1/C(=C/c2ccc(Cl)cc2)Oc2cc(O)ccc21 [6-HYDROXY-4'-CHLORO AURONE]	19.6 µM (inactive)
Cc1ccc(S(=O)(=O)N/N=C(/c2nc3ccc([N+](=O)[O-])cc3nc2O)C(O)c2ccc(C(O)/C(=N\NS(=O)(=O)c3ccc(C)cc3)c3nc4ccc([N+](=O)[O-])cc4nc3O)cc2)cc1 (stereo not drawn)	28.2 µM (inactive)
COc1ccc(Br)c(CN2CCc3ccccc32)c1OS(=O)(=O)c1ccc(C)cc1	29.3 µM (inactive)
NC(CCCCNCc1ccccc1)C(=O)O (stereo not drawn)	> 100 µM (inactive)
CCN(CC)CCO/N=C1\CC[C@H]2[C@@H]3CCc4cc(OC)ccc4[C@H]3CC[C@]12C	1.44 µM (inactive)
CC1=C(C(=O)NCc2ccccc2)C(c2ccc(Cl)c(Cl)c2)C(C(=O)NCc2ccccc2)=C(C)N1	> 100 µM (inactive)

Input: Name the value of GI50 reported for "CCOC(=O)c1[nH]c2ccccc2c1C(=O)C[C@H](NC(=O)C(F)(F)F)C(=O)OC" when tested on MOLT-4.
Output: > 100 µM (inactive)

Input: Under MOLT-4, report GI50 for COC(=O)[C@@]12C(=O)C=CC(=O)[C@@H]1C1C(=CC2COC(C)=O)O[C@@H]2OC3(CCCCC3)O[C@H]12 (stereo partly drawn)
Output: 3.29 µM (inactive)

---

Reported GI50 is given for each of the following molecules.
test system: RXF 393; assay: NCI tumour cell line growth inhibition, 48 h
The source made the active and inactive calls. Rule as the data show it: active = GI50 up to about 1.1 µM and inactive = higher.

Worked examples follow.
CC12CCC([C@H](C(O)C3CCCCC3)C1=O)C2(C)C (some centres undefined)	75.2 µM (inactive)
CC(C)CC(N/C=C1/N=C(c2ccccc2)OC1=O)C(=O)O (centres undefined)	> 100 µM (inactive)
Cc1ccc(S(=O)(=O)N/N=C(/c2nc3ccc([N+](=O)[O-])cc3nc2O)C(O)c2ccc(C(O)/C(=N\NS(=O)(=O)c3ccc(C)cc3)c3nc4ccc([N+](=O)[O-])cc4nc3O)cc2)cc1 (centres undefined)	> 100 µM (inactive)

Input: Could you please provide reported GI50 for "Cc1ccc(/C=C2\Cc3c(C)cc(C)cc3C2=O)c(C(=O)O)c1" ? Thanks!
Output: 39.9 µM (inactive)
